# Procedure details: Cytotoxicity against african green monkey Vero cells assessed as reduction in cell viability incubated for 48 hrs by MTT assay
# Assay type: toxicity, cell-based
# Cond: chlorocebus sabaeus
Assay metric: CC50 at 48 h
Number first, unit second: that is the form wanted.

Name the recorded CC50 at 48 h for C[C@]1(O)CC2=C(C[C@@]1(C)O)C(=O)c1c(O)cc(N3CCC(c4ccccc4)CC3)c(O)c1C2=O .
65.4 µM

* * *

# System tested: NS5 (Zika virus, UniProt A0A143MHK7)
# Sequence (A0A143MHK7 whole entry): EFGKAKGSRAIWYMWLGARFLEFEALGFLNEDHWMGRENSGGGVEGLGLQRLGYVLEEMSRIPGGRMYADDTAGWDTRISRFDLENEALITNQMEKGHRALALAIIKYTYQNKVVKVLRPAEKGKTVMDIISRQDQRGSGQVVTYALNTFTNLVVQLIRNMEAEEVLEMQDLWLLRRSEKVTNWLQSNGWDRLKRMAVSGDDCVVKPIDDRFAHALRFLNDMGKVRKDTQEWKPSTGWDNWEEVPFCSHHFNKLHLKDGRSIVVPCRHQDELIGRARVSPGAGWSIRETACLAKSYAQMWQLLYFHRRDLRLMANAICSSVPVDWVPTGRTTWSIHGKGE
Assay metric: Kd (µM)
// note: answer is a bare numeric in µM

What Kd appears in the records for this compound with NS5 (Zika virus, UniProt A0A143MHK7)? C[C@]1(O)CC2=C(C[C@@]1(C)O)C(=O)c1c(O)cc(N3CCC(c4ccccc4)CC3)c(O)c1C2=O
10.4

* * *

# Procedure details: Cytotoxicity against human JEG-3 cells assessed as reduction in cell viability incubated for 48 hrs by MTT assay
# Type: toxicity, cell-based
Assay metric: CC50 at 48 h (µM)
Respond numerically; units are µM and should not be typed.

Request the reported CC50 at 48 h associated with C[C@]1(O)CC2=C(C[C@@]1(C)O)C(=O)c1c(O)cc(N3CCC(c4ccccc4)CC3)c(O)c1C2=O
54.7

* * *

# Test system: Porcine reproductive and respiratory syndrome virus
# Procedure details: Antiviral activity against Porcine reproductive and respiratory syndrome virus infected in MARC145 cells assessed as reduction in viral replication by microscopic analysis
# Assay type: functional, organism-based
Assay metric: EC50 (µM)
All answers are understood in µM, so give the number only.

Dear colleague, I am looking for the recorded EC50 of the following molecule: COc1cc(O)c2c(c1)[C@@H](O)[C@H]1C[C@](C)(O)[C@H](O)C[C@@H]1C2=O [TETRAHYDROALTERSOLANOL C]
12.1

Values were extracted from ChEMBL document CHEMBL5620422.
